# System: CCRIS mutagenicity, Ames/micronucleus/aberration tests
# assay.overview: CCRIS mutagenicity studies
# assay.setup: Test System: AMES SALMONELLA TYPHIMURIUM; Strain/Indicator: TA100; Metabolic Activation: NONE; Method: STANDARD PLATE
Active and inactive are the calls of the source. No rule for the calls is given here.
measure.name: mutagenic call

Reference set, count: 5
1) O=C1CCC(=O)N1O: inactive; negative
2) CC(=O)c1c(O)cc(O)c2c1C(=O)c1cc(O)cc(O)c1C2=O: inactive; negative
3) Nc1ccc(-c2ccc(Cl)cc2)cc1: inactive; negative
4) [O-][N+](=Nc1ccc(Cl)c(Cl)c1)c1ccc(Cl)c(Cl)c1: inactive; negative
5) O=C(O)CCCC[C@@H]1SC[C@@H]2NC(=O)N[C@@H]21: inactive; negative

Please find the next compound below.
Retrieve mutagenic call on CCRIS mutagenicity, Ames/micronucleus/aberration tests; query `C=CCCCCCCCC`
inactive; negative

---

# Test system: CCRIS mutagenicity, Ames/micronucleus/aberration tests
# assay.overview: CCRIS mutagenicity studies
# assay.setup: Test System: AMES SALMONELLA TYPHIMURIUM; Strain/Indicator: TA100; Metabolic Activation: RAT, LIVER, S-9, AROCLOR 1254 (30%); Method: PREINCUBATION
# Description: The CCRIS database contains chemical records with carcinogenicity, mutagenicity, tumor promotion, and tumor inhibition test results. It was developed by the National Cancer Institute (NCI). Data are derived from studies cited in primary journals, current awareness tools, NCI reports, and other sources. Test results have been reviewed by experts in carcinogenesis and mutagenesis. CCRIS provides historical information from the years 1985 - 2011. It is no longer updated. […]
Active and inactive are the calls of the source. No rule for the calls is given here.
measure.name: mutagenic call

Reference set, count: 6
1. CC(=O)NNc1ccccc1: inactive; negative
2. Cc1ccc(C#N)cc1: inactive; negative
3. CC(=O)O: inactive; negative
4. Oc1ccc(Nc2ccc3ccccc3c2)cc1: inactive; negative
5. c1ccc(C2CO2)cc1 (stereo not given): active; positive
6. CCSCCC(N)C(=O)O (stereo not given): inactive; negative

Please find the next compound below.
Retrieve mutagenic call on CCRIS mutagenicity, Ames/micronucleus/aberration tests; query `NC(N)=NC(=O)c1nc(Cl)c(N)nc1N`
inactive; negative

---

# Tested on: CCRIS mutagenicity, Ames/micronucleus/aberration tests
# assay.overview: CCRIS mutagenicity studies
# assay.setup: Test System: AMES SALMONELLA TYPHIMURIUM; Strain/Indicator: TA98; Metabolic Activation: HAMSTER, LIVER, S-9, AROCLOR 1254; Method: STANDARD PLATE
Activity calls are given as the source filed them. The rule behind the calls is not given here.
Your response should consist of one outcome taken from 1 (yes) for active, 0 (no) for inactive

1) [O]=[Zr]: 0 (no)
2) CC(=O)O[C@@H]1[C@@H](O)[C@H](O[C@H]2[C@H](OC(=O)[C@H]3CC[C@@H]4[C@H](C3)O[C@@]3(C[C@H](OC(=O)/C=C/c5ccccc5)[C@H](C)CO3)[C@]43CO3)O[C@H](C)[C@@H](O)[C@@H]2OC(C)=O)O[C@H](C)[C@H]1O: 0 (no)
3) Cc1nc2ccccc2s1: 0 (no)
4) CC(=O)Oc1ccccc1C(=O)O: 0 (no)
5) CCN(CC[N+](C)(C)C)c1ccc(N=Nc2ccc([N+](=O)[O-])cc2Cl)cc1: 1 (yes)

// return assay outcome for `N#CCCN`
0 (no)

// return assay outcome for `O=C([O-])c1ccccn1.O=C([O-])c1ccccn1.O=C([O-])c1ccccn1.[Cr+3]`
0 (no)

---

# Test system: CCRIS mutagenicity, Ames/micronucleus/aberration tests
# assay.overview: CCRIS mutagenicity studies
# assay.setup: Test System: AMES SALMONELLA TYPHIMURIUM; Strain/Indicator: TA98; Metabolic Activation: RAT, LIVER, S-9, AROCLOR 1254; Method: STANDARD PLATE
# From the text: The CCRIS database contains chemical records with carcinogenicity, mutagenicity, tumor promotion, and tumor inhibition test results. It was developed by the National Cancer Institute (NCI). Data are derived from studies cited in primary journals, current awareness tools, NCI reports, and other sources. Test results have been reviewed by experts in carcinogenesis and mutagenesis. CCRIS provides historical information from the years 1985 - 2011. It is no longer updated. […]
Active and inactive are the calls of the source. How the calls were made is not given here.
Your response should consist of one outcome taken from yes (1) = active, no (0) = inactive

Previously resolved entries follow.
1. O=c1[nH]cnc2[nH]ncc12: no (0)
2. C1CSCCS1: no (0)
3. Cc1cc2c(nc(N)n2C)c2nc(-c3ccccc3)cnc12: yes (1)
4. CC(C)CON=O: no (0)

Let's switch to this compound now.
// return assay outcome for `CCCCCCCCCCSCn1cc[n+](C)c1`
no (0)

---

# System: CCRIS mutagenicity, Ames/micronucleus/aberration tests
# assay.overview: CCRIS mutagenicity studies
# assay.setup: Test System: AMES SALMONELLA TYPHIMURIUM; Strain/Indicator: TA98; Metabolic Activation: NONE; Method: PREINCUBATION
Active and inactive are the calls of the source. The rule behind the calls is not given here.
Your response should consist of one outcome taken from active, inactive

1) CCCCC(CC)CN (stereo not given): inactive
2) CC1CC(C)C(=O)C1=O (stereo not given): inactive
3) CC(=O)O: inactive
4) O=C(O)/C=C/c1ccc([N+](=O)[O-])o1: active
5) ClCc1ccc2ccc3cccc4ccc1c2c34: active
6) CCC(C)OC(=O)C=Cc1ccc([N+](=O)[O-])o1 (stereo not given): active
7) Cc1ccc2c(c1N)C(=O)c1ccccc1C2=O: inactive
8) [O]=[Zr]: inactive
9) CCOC(=O)/C=C/c1ccc([N+](=O)[O-])o1: active
10) CC(=O)O[C@H]1[C@H](OC23C=C(C)C4(CC4)C(C)(O)C2C(=O)C(C)(C)C3)O[C@H](CO)[C@@H](OC(=O)/C=C/c2ccc(O)cc2)[C@@H]1O (stereo not given in full): active

Let's switch to this molecule now.
// return assay outcome for CCCCCCCCCCCCCCCCCC(=O)NCCCC[C@@H](NC(=O)CC[C@@H](NC(=O)[C@H](C)NC(=O)[C@@H](C)O[C@H]1[C@H](O)[C@@H](CO)OC(O)[C@@H]1NC(C)=O)C(N)=O)C(=O)O (stereo not given in full)
inactive

---

# Test system: CCRIS mutagenicity, Ames/micronucleus/aberration tests
# assay.overview: CCRIS mutagenicity studies
# assay.setup: Test System: AMES SALMONELLA TYPHIMURIUM; Strain/Indicator: TA100; Metabolic Activation: RAT, LIVER, S-9, AROCLOR 1254 (10%); Method: PREINCUBATION
# From the text: The CCRIS database contains chemical records with carcinogenicity, mutagenicity, tumor promotion, and tumor inhibition test results. It was developed by the National Cancer Institute (NCI). Data are derived from studies cited in primary journals, current awareness tools, NCI reports, and other sources. Test results have been reviewed by experts in carcinogenesis and mutagenesis. CCRIS provides historical information from the years 1985 - 2011. It is no longer updated. […]
Active and inactive are the calls of the source. No rule for the calls is given here.
Your response should consist of one outcome taken from active, inactive

1. O=[N+]([O-])c1ccc(O)c([N+](=O)[O-])c1: inactive
2. CN(C)CCO: inactive
3. CCCCN(CCO)CCCC: inactive
4. CCCCCCCCC/C=C/CC1CC(=O)OC1=O (stereo not given): inactive
5. NCCO: inactive
6. Oc1ccc(Nc2ccc3ccccc3c2)cc1: inactive

// return assay outcome for CCCCC(CC)COS(=O)(=O)O (stereo not given)
inactive

// return assay outcome for `COC(=O)Nc1nc2ccccc2[nH]1`
inactive

// return assay outcome for `CC(C)(O)C#N`
inactive

// return assay outcome for `CC(=O)/C=C/c1ccc2c(c1)OCO2`
inactive

// return assay outcome for COCC1CO1 (stereo not given)
active

---

# Test system: CCRIS mutagenicity, Ames/micronucleus/aberration tests
# assay.overview: CCRIS mutagenicity studies
# assay.setup: Test System: AMES SALMONELLA TYPHIMURIUM; Strain/Indicator: TA100; Metabolic Activation: RAT, LIVER, S-9, KC 500; Method: PREINCUBATION
Activity calls are given as the source filed them. How the calls were made is not given here.
Your response should consist of one outcome taken from active, inactive

1) OCC(O)CO: inactive

// return assay outcome for `O=c1n(Cl)c(=O)n(Cl)c(=O)n1Cl`
inactive

// return assay outcome for `C1N2CN3CN1CN(C2)C3`
active

// return assay outcome for `Cl`
inactive

// return assay outcome for `CC(C)CO`
inactive

---

# Tested on: CCRIS mutagenicity, Ames/micronucleus/aberration tests
# assay.overview: CCRIS mutagenicity studies
# assay.setup: Test System: AMES SALMONELLA TYPHIMURIUM; Strain/Indicator: TA1537; Metabolic Activation: NONE; Method: PREINCUBATION
Activity calls are given as the source filed them. The rule behind the calls is not given here.
Your response should consist of one outcome taken from 1 (active), -1 (inactive)

Previously resolved entries follow.
1) NC(N)=NC(=O)c1nc(Cl)c(N)nc1N: 1
2) CO/N=C(\C(=O)N[C@@H]1C(=O)N2C(C(=O)OCOC(=O)C(C)(C)C)=C(/C=C\c3scnc3C)CS[C@H]12)c1csc(N)n1: -1
3) N#Cc1ccc([N+](=O)[O-])cc1: -1

// return assay outcome for CN1C(=O)C(O)CC1c1cccnc1 (stereo unspecified)
-1

// return assay outcome for `c1ccc(P(c2ccccc2)c2ccccc2)cc1`
-1

// return assay outcome for `C1N2CN3CN1CN(C2)C3`
-1

// return assay outcome for `CC1=CC(=O)C=C2CC[C@@H]3[C@H](CC[C@]4(C)C(=O)CC[C@@H]34)[C@@]12C`
-1

// return assay outcome for `O=C(O)CN(CC(=O)O)CC(=O)O`
-1

// return assay outcome for `Cc1ccc(CO)cc1`
-1

// return assay outcome for `NC(=O)NNC(N)=O`
-1

// return assay outcome for CCC1CO1 (stereo unspecified)
-1

// return assay outcome for `O=CC=O`
1

// return assay outcome for `[Cl][Mn][Cl]`
-1
